# study.target: T1, monomeric human CD19 antigen Fc(kih) fusion molecule (human, UniProt P0DOX5 223-449 = IgG part)
# T1 construct: also called monomeric CD19-Fc; human CD19-Fc(kih)
# test.details: SPR ProteOn XPR36, Fab from bacterial supernatant captured via anti-human Fab, monomeric CD19-Fc analyte
# key: entry, value: koff
State the answer as a number, implicitly in s⁻¹.

Recorded koff, per entry:
binder: anti-CD19 clone 8B8-2B03, Fab in bacterial supernatant (Fab, V domains shown, printed VL holds an X) VH: QVQLVQSGAEVKKPGASVKVSCKASGYTFTDYITHWVRQAPGQGLEWMGYINPYNDGSKYTEKFQGRVTMTSDTSISTAYMELSRLRSDDTAVYYCARGTYYYGPDLFDYWGQGTTVTVSS VL: DIVMTQTPLSLSVTPGQPASISCKSSQSLETSTGNTYLNWYLQKPGQSPQLLIYRVSKRFSGVPDRFSGSGSGTDFTLKISRVEAEDVGVYYCLQLTHVPYTFGQGTKLEIK
koff [s⁻¹]: 3.24e-05

binder: anti-CD19 clone 8B8-5H09, Fab in bacterial supernatant (Fab, V domains shown) VH: QVQLVQSGAEVKKPGASVKVSCKASGYTFTDYIMHWVRQAPGQGLEWMGYINPYNDGSKYTEKFQGRVTMTSDTSISTAYMELSRLRSDDTAVYYCARGTYYYGSALFDYWGQGTTVTVSS VL: DIVMTQTPLSLSVTPGQPASISCKSSQSLESSTGNTYLNWYLQKPGQSPQLLIYRVSKRFSGVPDRFSGSGSGTDFTLKISRVEAEDVGVYYCLQLIDYPVTFGQGTKLEIK
koff [s⁻¹]: 0.000258

Field request: koff | item: anti-CD19 clone 8B8-2B11, Fab in bacterial supernatant (Fab, V domains shown) VH: QVQLVQSGAEVKKPGASVKVSCKASGYTFTDYIMHWVRQAPGQGLEWMGYINPYNDGSKYTEKFQGRVTMTSDTSISTAYMELSRLRSDDTAVYYCARGTYYYGPQLFDYWGQGTTVTVSS VL: DIVMTQTPLSLSVTPGQPASISCKSSQSLETSTGTTYLNWYLQKPGQSPQLLIYRVSKRFSGVPDRFSGSGSGTDFTLKISRVEAEDVGVYYCLQLLEDPYTFGQGTKLEIK
4.37e-06

Origin of values: patent US20250101135A1
